biological target: Human ATX protein (Homo sapiens); construct: made in house; assay: ATX biochemical FRET assay with FS-3 substrate; conditions: FS-3 2 μM, ATX 1.0 μg/mL, binned table, read-out: IC50 (μm)
pIC50: −log10 of the molar value.
MEASUREMENT_TYPE: pIC50

| COMPOUND | SYSTEM_UNDER_TEST | pIC50 |
| --- | --- | --- |
| O=C(O)C[C@H]1CCCN(Cc2cccc3c(C(F)(F)F)c(O[C@H]4CC[C@@H](C(F)(F)F)CC4)ccc23)C1 | Human ATX protein (Homo sapiens) | > 6.30 |

The recorded pIC50 for O=C(O)C1CCN(Cc2cccc3ccc(O[C@H]4CC[C@@H](C(F)(F)F)CC4)c(C(F)(F)F)c23)CC1 is 5.30 to 6.30

// sample O=C(O)CNCc1cccc2c(C(F)(F)F)c(O[C@H]3CC[C@@H](C(F)(F)F)CC3)ccc12 , its pIC50 was 5.30 to 6.30
